- target or system: spike glycoprotein of wild type SARS-CoV-2 virus (SARS-CoV-2, UniProt P0DTC2 14-1273)
- test summary: cell-based or functional assay
measurement type: Neutralization by PRNT EC50 (nM)
Hi! Could you send only the number? It should be in nM, unit omitted.

binder="FJ 4E (antibody, V domains shown) VH: QVQLVESGPGLVKPSETLSLTCSVSGGSISSGTYYWSWIRQQPGKGLEWIGYIYNTGRPYYNPFLKSRITISVDSSKNQFSLKLTSVTAADTAVYYCARDEYDSSDSGIQGHWFDPWGQGTLVTVSS VL: AIRMTQSPSSLSASVGDRVTITCRTSQNINSFLNWYQQKPGKGPNLLIYGAFTLQSGVPSRFSGSGSGTDFTLTISSLQPEDFATYFCQQSYSTPWTFGQGTKVEIK" measurement_type="Neutralization by PRNT EC50" result=75.3

Looking for the measured Neutralization by PRNT EC50 of FI 1C (antibody, V domains shown) VH: EVQLVESGGGLVKPGGSLRLSCAASGFTFSDYYMSWIRQAPGKGLEWVSYISSSGSTIYYADSVKGRFTISRDNAKNSLYLQMNSLRAEDTAVYYCARRSNRFLIAFDIWGQGTMVTVSS VL: QSALTQPASVSGSPGQTITISCTGTSSDVGGYNYVSWYQQHPGKAPKLMIYEVSNRPSGVSNRFSGSKSGNTASLTISGLQAEDEADYYCSSYTSSSTLVVFGGGTKLTVP , can you help?
16.7

Looking for the measured Neutralization by PRNT EC50 of FD 11A (antibody, V domains shown) VH: EVQLVESGGGVVQPGRSLRLSCAASGFTFSSYGMHWVRQAPGKGLEWVAVIWYDGSNKYYADSVKGRFTISRDNSKNTLYLQMNSLRAEDTAVYYCAKGPDILTGYYNYYYYGMDVWGQGTMVTVSS VL: QSVLTQPPSVSGAPGQRVTISCTGSSSNIGAGYDVHWYQQLPGTAPKLLIYGNSNRPSGVPDRFSGSKSGTSASLAITGLQAEDEADYYCQSYDSSLSGFYVVFGGGTKLTVL , can you help?
0.05
